Provide the recorded critical wavelength for the entries that follow.
Assay text: Critical wavelength (λC) from absorption spectra (Eq. 2)
Type: physicochemical
Condition info: chemical sunscreen, no concentration stated
One number for each entry, in nm.

The following molecules have reported results that may help.
[
  {
    "Molecule": "CCCCC(CC)COC(=O)c1ccc(Nc2nc(Nc3ccc(C(=O)OCC(CC)CCCC)cc3)nc(Nc3ccc(C(=O)OCC(CC)CCCC)cc3)n2)cc1 (centres unmarked) [ethylhexyl triazone, Ethylhexyl triazone]",
    "Endpoint name": "critical wavelength",
    "Endpoint result": 341
  },
  {
    "Molecule": "CCCCC(CC)COC(=O)C(C#N)=C(c1ccccc1)c1ccccc1 (centres unmarked) [octocrylene, Octocrylene]",
    "Endpoint name": "critical wavelength",
    "Endpoint result": 342
  },
  {
    "Molecule": "CCCCC(CC)COc1ccc(-c2nc(-c3ccc(OC)cc3)nc(-c3ccc(OCC(CC)CCCC)cc3O)n2)c(O)c1 (centres unmarked)",
    "Endpoint name": "critical wavelength",
    "Endpoint result": 365
  },
  {
    "Molecule": "CCCCC(CC)COC(=O)c1ccc(Nc2nc(Nc3ccc(C(=O)NC(C)(C)C)cc3)nc(Nc3ccc(C(=O)OCC(CC)CCCC)cc3)n2)cc1 (centres unmarked) [diethylhexyl butamido triazone, Diethylhexyl butamido triazone]",
    "Endpoint name": "critical wavelength",
    "Endpoint result": 337
  }
]

Turning now to a further molecule:
input: # input molecule: CCCCCCCCCCCCc1cc(C)cc(-n2nc3ccccc3n2)c1O [benzotriazolyl dodecyl p-cresol, Benzotriazolyl dodecyl p-cresol] ; wanted: its critical wavelength
output: 363
